- System: IGROV-1
- ASSAY COMMENT: SRB colorimetric assay of cell growth and viability, IGROV-1
- Format: cell-based, human
- PARTICULARS: IGROV; 48 hours exposure
Where a SMILES comes first, the peptide text is derived from it. Bridges are numbered along the chain shown (N, C = ends). [ ]: non-standard residue; d: D form. The star is where a group is joined. d(aIle) = CC[C@H](C)[C@@H](N)C(=O)O; d(aThr) = C[C@@H](O)[C@@H](N)C(=O)O; Hexanoyl(5-Me) = CC(C)CCCC(=O)*; Orn = NCCC[C@H](N)C(=O)O; Dhb = C/C=C(\N)C(=O)O
MEASURED METRIC: TGI IGROV (Molar)
Please give a number only; it is taken to be in Molar.

Value of TGI IGROV reported for the compound C/C=C1\NC(=O)[C@H](Cc2ccccc2Cl)NC(=O)[C@@H](C(C)C)NC(=O)[C@@H]([C@@H](C)CC)NC(=O)[C@H](NC(=O)[C@H](NC(=O)[C@H](CCCN)NC(=O)[C@H]2CCCN2C(=O)[C@H](NC(=O)[C@@H](NC(=O)[C@@H](NC(=O)[C@H](NC(=O)CCCC(C)C)C(C)C)[C@@H](C)O)C(C)C)C(C)C)[C@@H](C)CC)[C@@H](C)OC(=O)[C@H](C(C)C)NC1=O [Compound 81, [Phe(2-Cl)^3]-KF] is 2.09E−07

Value of TGI IGROV reported for the compound C/C=C1\NC(=O)[C@H](Cc2ccccc2)NC(=O)[C@@H](C(C)C)NC(=O)[C@@H]([C@@H](C)CC)NC(=O)[C@H](NC(=O)[C@H](NC(=O)[C@H](CCCN)NC(=O)[C@H]2CCCN2C(=O)[C@H](NC(=O)[C@@H](NC(=O)[C@H](CCCN)NC(=O)[C@H](NC(=O)CCCC(C)C)C(C)C)C(C)C)C(C)C)[C@@H](C)CC)[C@@H](C)OC(=O)[C@H](C(C)C)NC1=O [Compound 116, [Orn^12]-KF] ({Hexanoyl(5-Me)}-[dV][Orn]V[dV][dP][Orn][d(aIle)][d(aThr)][d(aIle)][dV]F[Dhb]V; ester 8-C) is 3.86E−06
